Test system: Streptococcus bovis 80
PROTOCOL DETAILS: MIC, broth-dilution microtiter test, Streptococcus bovis 80
Assay type: cell-based
RECORDED CONDITIONS: Streptococcus equinus; Streptococcus bovis 80; broth-dilution microtiter; read-out: MIC
REPORTED PROPERTY: MIC

Task item: Recorded MIC for CCC1OC(=O)CC(O)C(C)C(OC2OC(C)C(OC3CC(C)(O)C(O)C(C)O3)C(N(C)C)C2O)C(CCOC(C(F)(F)F)C(F)(F)F)CC(C)C(=O)C=CC(C)=CC1COC1OC(C)C(O)C(OC)C1OC (centres unmarked) , please?
Reply: > 50 µg/mL

Task item: Given CCC1OC(=O)CC(O)C(C)C(OC2OC(C)C(O)C(N(C)C)C2O)C(CCOC(=O)c2nn(CC)c3cc4c(cc3c2=O)OCO4)CC(C)C(=O)C=CC(C)=CC1COC1OC(C)C(O)C(OC)C1OC (centres unmarked) , state its recorded MIC.
Reply: 0.78 µg/mL

---

Test system: Pasteurella multocida 60A
PROTOCOL DETAILS: MIC, broth-dilution microtiter test, Pasteurella multocida 60A
Assay type: cell-based
RECORDED CONDITIONS: Pasteurella multocida 60A; avian isolate; broth-dilution microtiter; read-out: MIC
REPORTED PROPERTY: MIC

Task item: What does the record list as MIC for CCC1OC(=O)CC(O)C(C)C(OC2OC(C)C(OC3CC(C)(O)C(O)C(C)O3)C(N(C)C)C2O)C(CCOC(=O)c2nn(CC)c3cc4c(cc3c2=O)OCO4)CC(C)C(=O)C=CC(C)=CC1COC1OC(C)C(O)C(OC)C1OC (stereo not shown) [Compound 10, 20-DH-20-O-Cinoxacinyltylosin] ?
Reply: > 50 mg/L

Task item: Endpoint output: MIC of CCC1OC(=O)CC(O)C(C)C(OC2OC(C)C(O)C(N(C)C)C2O)C(CCOC)CC(C)C(=O)C=CC(C)=CC1COC1OC(C)C(O)C(OC)C1OC (stereo not shown) [Compound 30, 20-DH-20-O-Methyldesmycosin] . Value?
Reply: 25 mg/L

Task item: Given the entry CCC1OC(=O)CC(O)C(C)C(OC2OC(C)C(O)C(N(C)C)C2O)C(CCOc2ccc([N+](=O)[O-])cc2)CC(C)C(=O)C=CC(C)=CC1COC1OC(C)C(O)C(OC)C1OC (stereo not shown) [Compound 34, 20-DH-20-O-(p-Nitrophenyl)desmycosin] , report its measured MIC.
Reply: 25 mg/L

Task item: So what does the record say about MIC for CCC1OC(=O)CC(O)C(C)C(OC2OC(C)C(O)C(N(C)C)C2O)C(CCOC(=O)COc2ccccc2)CC(C)C(=O)C=CC(C)=CC1COC1OC(C)C(O)C(OC)C1OC (stereo not shown) [Compound 26, 20-DH-20-O-(Phenoxyacetyl)desmycosin] ?
Reply: 6.25 mg/L

---

Test system: Staphylococcus epidermidis EPI1
PROTOCOL DETAILS: MIC, standard agar-dilution assay, Staphylococcus epidermidis EPI1
Assay type: cell-based
RECORDED CONDITIONS: Staphylococcus epidermidis, EPI1
Entries and their MIC
Dear colleague, please return just the value in µg/mL, with no unit written.

Before answering, review these 3 worked examples.
COMPOUND	TARGET ENTITY	MIC, µg/mL
CCC1OC(=O)CC(O)C(C)C(OC2OC(C)C(OC3CC(C)(O)C(O)C(C)O3)C(N(C)C)C2O)C(CCOc2ccc(C=O)cc2)CC(C)C(=O)C=CC(C)=CC1COC1OC(C)C(O)C(OC)C1OC (stereo not drawn)	Staphylococcus epidermidis EPI1	1
CCC1OC(=O)CC(O)C(C)C(OC2OC(C)C(O)C(N(C)C)C2O)C(CC2Nc3ccccc3S2)CC(C)C(=O)C=CC(C)=CC1COC1OC(C)C(O)C(OC)C1OC (stereo not drawn)	Staphylococcus epidermidis EPI1	0.25
CCOC(=O)NN(CCC1CC(C)C(=O)C=CC(C)=CC(COC2OC(C)C(O)C(OC)C2OC)C(CC)OC(=O)CC(O)C(C)C1OC1OC(C)C(OC2CC(C)(O)C(O)C(C)O2)C(N(C)C)C1O)C(=O)OCC (stereo not drawn)	Staphylococcus epidermidis EPI1	4

Task item: Requested read-out MIC, target or system Staphylococcus epidermidis EPI1, entry CCC1OC(=O)CC(O)C(C)C(OC2OC(C)C(OC3CC(C)(O)C(O)C(C)O3)C(N(C)C)C2O)C(CCOc2cccc(N(C)C)c2)CC(C)C(=O)C=CC(C)=CC1COC1OC(C)C(O)C(OC)C1OC (stereo not drawn)
Reply: 1

Task item: Observed MIC on Staphylococcus epidermidis EPI1 for CCC1OC(=O)CC(O)C(C)C(OC2OC(C)C(O)C(N(C)C)C2O)C(CCSc2ccccc2)CC(C)C(=O)C=CC(C)=CC1COC1OC(C)C(O)C(OC)C1OC (stereo not drawn) , please.
Reply: 0.25

Task item: API: value(readout= MIC, system= Staphylococcus epidermidis EPI1, query= CCC1OC(=O)CC(O)C(C)C(OC2OC(C)C(OC3CC(C)(O)C(O)C(C)O3)C(N(C)C)C2O)C(CCOc2ccc(-c3ccccc3)cc2)CC(C)C(=O)C=CC(C)=CC1COC1OC(C)C(O)C(OC)C1OC (stereo not drawn) )
Reply: 2

Task item: Param readout= MIC; system= Staphylococcus epidermidis EPI1; entry= CCC1OC(=O)CC(O)C(C)C(OC2OC(C)C(OC3CC(C)(O)C(O)C(C)O3)C(N(C)C)C2O)C(CCOC(=O)c2nn(CC)c3cc4c(cc3c2=O)OCO4)CC(C)C(=O)C=CC(C)=CC1COC1OC(C)C(O)C(OC)C1OC (stereo not drawn) ; returns value.
Reply: 2

Task item: Item: CCC1OC(=O)CC(O)C(C)C(OC2OC(C)C(O)C(N(C)C)C2O)C(CCOc2ccc([N+](=O)[O-])cc2)CC(C)C(=O)C=CC(C)=CC1COC1OC(C)C(O)C(OC)C1OC (stereo not drawn) Test system: Staphylococcus epidermidis EPI1 Read-out: MIC Value: ?
Reply: 0.5

Task item: Form entry - test system: Staphylococcus epidermidis EPI1; read-out: MIC; compound: CCC1OC(=O)CC(O)C(C)C(OC2OC(C)C(O)C(N(C)C)C2O)C(CC2SCCN2Cc2ccccc2)CC(C)C(=O)C=CC(C)=CC1COC1OC(C)C(O)C(OC)C1OC (stereo not drawn)
Reply: 0.25
